system: Proteus vulgaris HX 19; assay: Minimum Inhibitory Concentration, Proteus vulgaris HX 19; assay type: cell-based; conditions: HX19; Proteus vulgaris HX 19; read-out: Minimum Inhibitory Concentration
What MIC was measured for each of the following?
# value in µg/mL; strip the unit string

GET /values?readout=MIC&item= NC(=O)Nc1cccc(C(NC(=O)c2cnccc2O)C(=O)NC2C(=O)N3C(C(=O)O)=C(CSc4nnc(CO)s4)CSC23)c1 (stereo not shown)
0.39

Record: O=C(O)C1=C(CSc2nnc(CO)s2)CSC2C(NC(=O)C(NC(=O)c3cnc4cccnc4c3O)c3ccc(CO)cc3)C(=O)N12 (stereo not shown)
0.2

# repeat for CC(=O)OCC1=C(C(=O)O)N2C(=O)C(NC(=O)[C@H](NC(=O)c3cnccc3O)c3cccc(N)c3)C2SC1 (stereo partly shown)
0.2

And then CC(=O)OCC1=C(C(=O)O)N2C(=O)C(NC(=O)[C@H](NC(=O)c3cnc4cccnc4c3O)c3ccc(O)c(Cl)c3)C2SC1 (stereo partly shown) , what is it?
0.39

Repeat for the following compound: CC(=O)OCC1=C(C(=O)O)N2C(=O)C(NC(=O)[C@H](NC(=O)c3cnc4cccnc4c3O)c3ccc(O)cc3)C2SC1 (stereo partly shown)
0.39

What would you report for Cc1nnc(SCC2=C(C(=O)O)N3C(=O)C(NC(=O)C(NC(=O)c4cncnc4O)c4ccc(N)cc4)C3SC2)s1 (stereo not shown) ?
0.2

Please do the same for O=C(O)C1=C(CSc2nnc(CO)s2)CSC2C(NC(=O)C(NC(=O)c3cnccc3O)c3ccc(O)cc3)C(=O)N12 (stereo not shown) as well.
0.2

Quick one: CC(=O)OCC1=C(C(=O)O)N2C(=O)C(NC(=O)C(NC(=O)c3cnccc3O)c3ccc(O)c(O)c3)C2SC1 (stereo not shown)
0.78

// same read-out, input: Cn1nnnc1SCC1=C(C(=O)O)N2C(=O)C(NC(=O)[C@H](NC(=O)c3cnc4cccnc4c3O)c3ccc(O)c(Cl)c3)C2SC1 (stereo partly shown)
0.1

Again, but for CC(=O)OCC1=C(C(=O)O)N2C(=O)[C@@H](NC(=O)[C@H](NC(=O)c3cnccc3O)c3cccc(NC(N)=O)c3)[C@H]2SC1
0.39

Continue with Cn1nnnc1SCC1=C(C(=O)O)N2C(=O)C(NC(=O)C(NC(=O)c3cnc4c(O)ccnc4c3O)c3ccc(O)cc3)C2SC1 (stereo not shown)
0.39

Also check CC(=O)OCC1=C(C(=O)O)N2C(=O)C(NC(=O)C(NC(=O)c3cnccc3O)c3ccc(CO)cc3)C2SC1 (racemic)
0.39

Lookup Cc1cc(C(NC(=O)c2cnc3cccnc3c2O)C(=O)NC2C(=O)N3C(C(=O)O)=C(CSc4ccc(O)nn4)CSC23)ccc1O (stereo not shown)
0.39

Thanks! And Cn1nnnc1SCC1=C(C(=O)O)N2C(=O)C(NC(=O)C(NC(=O)c3cnc4scnc4c3O)c3ccc(O)cc3)C2SC1 (stereo not shown) ?
0.39

Same again, this time with Cn1nnnc1SCC1=C(C(=O)O)N2C(=O)C(NC(=O)[C@H](NC(=O)c3cnc4cccnc4c3O)c3ccc(O)cc3)C2SC1 (stereo partly shown)
0.1

Similarly, Cn1nnc(SCC2=C(C(=O)O)N3C(=O)C(NC(=O)[C@H](NC(=O)c4cnc5cccnc5c4O)c4ccc(O)cc4)C3SC2)n1 (stereo partly shown) ?
0.1

Repeat for the following compound: Cc1nnc(SCC2=C(C(=O)O)N3C(=O)[C@@H](NC(=O)[C@H](NC(=O)c4ccnnc4O)c4ccc(NC(N)=O)cc4)[C@H]3SC2)s1
0.2

Would you kindly repeat that for Nc1cccc(C(NC(=O)c2ccnnc2O)C(=O)NC2C(=O)N3C(C(=O)O)=C(CSc4ccc(O)nn4)CSC23)c1 (stereo not shown) ?
0.78

// same read-out, input: COc1cnc2c(O)c(C(=O)N[C@@H](C(=O)N[C@@H]3C(=O)N4C(C(=O)O)=C(COC(C)=O)CS[C@H]34)c3cccc(NC(N)=O)c3)cnc2n1
0.39

Record: CC(=O)OCC1=C(C(=O)O)N2C(=O)C(NC(=O)[C@H](NC(=O)c3cncnc3O)c3ccc(O)cc3)C2SC1 (stereo partly shown)
0.39

Proceed to Cc1nnc(SCC2=C(C(=O)O)N3C(=O)C(NC(=O)C(NC(=O)c4cnc5cccnc5c4O)c4ccc(CO)cc4)C3SC2)s1 (stereo not shown)
0.2

Here is the next compound: O=C(O)C1=C(CSc2nnc(CO)s2)CSC2C(NC(=O)C(NC(=O)c3cnc4cccnc4c3O)c3ccc(O)c(O)c3)C(=O)N12 (stereo not shown)
0.2

Now give it for CC(=O)OCC1=C(C(=O)O)N2C(=O)C(NC(=O)C(NC(=O)c3cnc4nc(C)ccc4c3O)c3cccc(N)c3)C2SC1 (stereo not shown) too.
0.39

Do the same for CSc1ncc2c(O)c(C(=O)NC(C(=O)NC3C(=O)N4C(C(=O)O)=C(CSc5nnnn5C)CSC34)c3cccc(O)c3)cnc2n1 (stereo not shown) please
0.78

// next record CSc1cnc2c(O)c(C(=O)NC(C(=O)NC3C(=O)N4C(C(=O)O)=C(CSc5nnnn5C)CSC34)c3cccc(NC(N)=O)c3)cnc2n1 (stereo not shown)
0.2

---

tested on: Proteus vulgaris HX 19; assay: Minimum Inhibitory Concentration, Proteus vulgaris HX 19; format: cell-based; conditions: HX19; Proteus vulgaris HX 19; read-out: Minimum Inhibitory Concentration
measured-property: MIC (µg/mL)
// return numeric value only (unit: µg/mL, not printed)

Recorded MIC for Nc1cccc(C(NC(=O)c2cnccc2O)C(=O)NC2C(=O)N3C(C(=O)O)=C(CSc4nnc(CO)s4)CSC23)c1 (stereo not shown) , please?
0.2

Try this compound next: COc1cnc2c(O)c(C(=O)NC(C(=O)NC3C(=O)N4C(C(=O)O)=C(CSc5nnnn5C)CSC34)c3ccc(O)cc3)cnc2n1 (stereo not shown)
0.78

Cool, now Cn1nnnc1SCC1=C(C(=O)O)N2C(=O)C(NC(=O)C(NC(=O)c3cnc4sccc4c3O)c3cccc(NC(N)=O)c3)C2SC1 (stereo not shown)
0.39

What about this compound? Cc1ccc2c(O)c(C(=O)NC(C(=O)NC3C(=O)N4C(C(=O)O)=C(CSc5nnc(C)s5)CSC34)c3ccc(CO)cc3)cnc2n1 (stereo not shown)
0.39

Another: CC(=O)OCC1=C(C(=O)O)N2C(=O)[C@@H](NC(=O)[C@H](NC(=O)c3cnc4cncnc4c3O)c3cccc(NC(N)=O)c3)[C@H]2SC1
0.39

Now the compound CC(=O)OCC1=C(C(=O)O)N2C(=O)C(NC(=O)C(NC(=O)c3cnccc3O)c3cccc(O)c3)C2SC1 (stereo not shown)
0.39

Now try O=C(O)C1=C(CSc2nncs2)CSC2C(NC(=O)[C@H](NC(=O)c3cnc4cccnc4c3O)c3ccc(O)cc3)C(=O)N12 (stereo partly shown) .
0.1

// repeat for O=C(O)C1=C(CSc2cnn[nH]2)CSC2C(NC(=O)C(NC(=O)c3cnccc3O)c3ccc(O)c(O)c3)C(=O)N12 (stereo not shown) and report
0.78

Next: Cc1nnc(SCC2=C(C(=O)O)N3C(=O)C(NC(=O)[C@H](NC(=O)c4cnccc4O)c4ccc(O)cc4)C3SC2)s1 (stereo partly shown)
0.1

For NCc1nnc(SCC2=C(C(=O)O)N3C(=O)C(NC(=O)C(NC(=O)c4cnc5cccnc5c4O)c4cccc(N)c4)C3SC2)s1 (stereo not shown) then?
0.2

Now try Cn1nnnc1SCC1=C(C(=O)O)N2C(=O)C(NC(=O)C(NC(=O)c3cccnc3O)c3ccc(CO)cc3)C2SC1 (stereo not shown) .
0.78

Then what about the compound Cn1nnnc1SCC1=C(C(=O)O)N2C(=O)[C@@H](NC(=O)[C@H](NC(=O)c3ccnnc3O)c3ccc(NC(N)=O)cc3)[C@H]2SC1 ?
0.1

What do you get for O=C(O)C1=C(CSc2cnn[nH]2)CSC2C(NC(=O)[C@H](NC(=O)c3cnc4cccnc4c3O)c3ccc(O)cc3)C(=O)N12 (stereo partly shown) ?
0.1

---

Kindly state Minimum Inhibitory Concentration for each of the entries shown.
test system: Enterobacter aerogeneus No. 75; experiment: Minimum Inhibitory Concentration, Enterobacter aerogeneus No. 75; assay type: cell-based; details: Enterobacter aerogeneus No. 75
# do not omit the unit; it follows the number

What Minimum Inhibitory Concentration appears in the records for this compound with Enterobacter aerogeneus No. 75? Cn1nnnc1SCC1=C(C(=O)[O-])N2C(=O)C(NC(=O)C(NC(=O)c3cnc4cccnc4c3O)c3cccc(N)c3)C2SC1.[Na+] (centres unmarked) [Example 55]
3.13 µg/mL

Item: CC(=O)OCC1=C(C(=O)[O-])N2C(=O)C(NC(=O)C(NC(=O)c3cnc4cccnc4c3O)c3ccc(O)c(F)c3)C2SC1.[Na+] (centres unmarked) [Example 145]
12.5 µg/mL

Try the compound Nc1cccc(C(NC(=O)c2cnccc2O)C(=O)NC2C(=O)N3C(C(=O)O)=C(CSc4nnc(CO)s4)CSC23)c1 (centres unmarked) [Example 84]
12.5 µg/mL

Lookup CSc1cnc2c(O)c(C(=O)NC(C(=O)NC3C(=O)N4C(C(=O)[O-])=C(COC(C)=O)CSC34)c3cccc(O)c3)cnc2n1.[Na+] (centres unmarked) [Example 140]
12.5 µg/mL

Also CC(=O)OCC1=C(C(=O)[O-])N2C(=O)C(NC(=O)C(NC(=O)c3ccnnc3O)c3ccc(NC(N)=O)cc3)C2SC1.[Na+] (centres unmarked) [Example 4] ?
50 µg/mL

Input CC(=O)OCC1=C(C(=O)[O-])N2C(=O)C(NC(=O)C(NC(=O)c3cnc4nc(C)cnc4c3O)c3ccc(O)cc3)C2SC1.[Na+] (centres unmarked) [Example 136]
6.25 µg/mL

Thanks! And CC(=O)OCC1=C(C(=O)[O-])N2C(=O)C(NC(=O)C(NC(=O)c3cnc4ncncc4c3O)c3ccc(O)cc3)C2SC1.[Na+] (centres unmarked) [Example 139] ?
50 µg/mL

Further, for CC(=O)OCC1=C(C(=O)[O-])N2C(=O)C(NC(=O)C(NC(=O)c3cnc4cccnc4c3O)c3ccc(O)c(O)c3)C2SC1.[Na+] (centres unmarked) [Example 142] ?
6.25 µg/mL

Proceed to CC(=O)OCC1=C(C(=O)[O-])N2C(=O)C(NC(=O)C(NC(=O)c3cnc4cccnc4c3O)c3cc(Cl)c(O)c(Cl)c3)C2SC1.[Na+] (centres unmarked) [Example 144]
12.5 µg/mL

Now try COc1cc(C(NC(=O)c2cnc3cccnc3c2O)C(=O)NC2C(=O)N3C(C(=O)[O-])=C(COC(C)=O)CSC23)ccc1O.[Na+] (centres unmarked) [Example 143] .
12.5 µg/mL

What about this compound? CC(=O)OCC1=C(C(=O)[O-])N2C(=O)C(NC(=O)C(NC(=O)c3cnc4cncnc4c3O)c3ccc(O)cc3)C2SC1.[Na+] (centres unmarked) [Example 141]
12.5 µg/mL

Now the compound CSc1ncc2c(O)c(C(=O)NC(C(=O)NC3C(=O)N4C(C(=O)[O-])=C(COC(C)=O)CSC34)c3ccc(O)cc3)cnc2n1.[Na+] (centres unmarked) [Example 137]
50 µg/mL

One more compound: CN(C)c1ccc2ncc(C(=O)NC(C(=O)NC3C(=O)N4C(C(=O)[O-])=C(CSc5nnnn5C)CSC34)c3ccc(NC(N)=O)cc3)c(O)c2n1.[Na+] (centres unmarked) [Example 29]
3.13 µg/mL

Could you do the same for CC(=O)OCC1=C(C(=O)[O-])N2C(=O)C(NC(=O)C(NC(=O)c3cnc4cccnc4c3O)c3cccc(O)c3)C2SC1.[Na+] (centres unmarked) [Example 138] , please?
6.25 µg/mL
